These entries and their values trace back to patent US11149037B2.

# measured_target: FAAH (Homo sapiens (Human))
# Sequence (O00519 whole entry): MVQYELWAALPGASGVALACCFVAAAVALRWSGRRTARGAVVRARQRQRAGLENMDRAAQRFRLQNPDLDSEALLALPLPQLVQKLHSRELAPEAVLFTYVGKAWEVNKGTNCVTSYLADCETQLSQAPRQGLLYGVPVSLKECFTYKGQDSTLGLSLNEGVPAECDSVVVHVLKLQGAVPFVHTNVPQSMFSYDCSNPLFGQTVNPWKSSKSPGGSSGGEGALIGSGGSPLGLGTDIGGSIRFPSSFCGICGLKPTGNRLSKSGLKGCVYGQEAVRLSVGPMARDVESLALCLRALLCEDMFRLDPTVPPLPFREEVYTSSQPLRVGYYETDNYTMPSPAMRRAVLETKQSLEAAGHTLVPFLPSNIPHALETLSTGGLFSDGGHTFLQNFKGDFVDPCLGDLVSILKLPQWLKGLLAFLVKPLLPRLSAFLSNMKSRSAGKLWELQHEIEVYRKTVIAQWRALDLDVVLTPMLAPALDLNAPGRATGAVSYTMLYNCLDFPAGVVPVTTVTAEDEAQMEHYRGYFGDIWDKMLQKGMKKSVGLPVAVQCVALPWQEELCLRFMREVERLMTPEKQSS
# assay_summary: In vitro competitive activity-based protein profiling, human proteomes (prefrontal cortex or PC3 cell membrane fractions)
# Assay type: biochemical
# stated_conditions: 1 μM, human proteome; read-out: FAAH % inh. 1 μM (human)
measured_attribute: inhibition at 1 µM

Please review the following examples before continuing.
Tell me its inhibition at 1 µM given CN(Cc1cc(Cl)ccc1C(F)(F)F)[C@H]1C[C@@H]2CN(C(=O)n3ccc(NS(C)(=O)=O)n3)C[C@@H]2C1 [Example 51] as the entry.
> 75%

Tell me its inhibition at 1 µM given CC(C)(O)COc1cccc(CN2CCN(C(=O)n3ccc(NS(C)(=O)=O)n3)CC2)c1Cl [Example 34] as the entry.
> 75%

Tell me its inhibition at 1 µM given CS(=O)(=O)Nc1ccn(C(=O)N2CCN(Cc3ccc(C(N)=O)c(C(F)(F)F)c3)CC2)n1 [Example 10] as the entry.
0 to 25%

Tell me its inhibition at 1 µM given CC(=O)Nc1ccn(C(=O)N2CCC3(CCCN3C(=O)c3ccc(C#N)c(C4CC4)c3)CC2)n1 [Example 87] as the entry.
0 to 25%

Tell me its inhibition at 1 µM given CS(=O)(=O)Nc1ccn(C(=O)N2CC3CN(Cc4ccc(N5CCCC5)cc4C(F)(F)F)CC3C2)n1 (stereo not drawn) [Example 47] as the entry.
0 to 25%

In the following, a different compound is considered.
Tell me its inhibition at 1 µM given CC(=O)Nc1ccn(C(=O)N2CCC3(CCCN3C(=O)c3ccc(Cl)c(C4CC4)c3)CC2)n1 [Example 20] as the entry.
0 to 25%

###

# measured_target: UniProtKB O35678
# Sequence (O35678 whole entry): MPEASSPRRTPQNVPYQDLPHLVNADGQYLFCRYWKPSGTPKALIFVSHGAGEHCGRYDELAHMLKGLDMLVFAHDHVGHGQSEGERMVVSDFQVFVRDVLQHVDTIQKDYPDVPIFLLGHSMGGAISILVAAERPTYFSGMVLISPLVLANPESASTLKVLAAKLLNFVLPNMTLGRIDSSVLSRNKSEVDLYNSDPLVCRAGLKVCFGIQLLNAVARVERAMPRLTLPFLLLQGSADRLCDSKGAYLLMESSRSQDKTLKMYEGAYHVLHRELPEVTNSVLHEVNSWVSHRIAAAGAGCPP
# assay_summary: In vitro competitive activity-based protein profiling, mouse proteomes (brain membrane fraction or cell lysates)
# Format: biochemical
# stated_conditions: mouse proteome, read-out: MAGL % inh. 1 μM (mouse)
Collected inhibition at 1 µM values appear next to each entry.

Tell me its inhibition at 1 µM given Cc1c(CN2CCN(C(=O)n3ccc(NS(C)(=O)=O)n3)CC2)[nH]c2c(Cl)cccc12 as the entry.
> 75%

Tell me its inhibition at 1 µM given CC(=O)Nc1ccn(C(=O)N2CCC3(CCCN3Cc3cc4cc(C(=O)O)ccc4[nH]3)CC2)n1 as the entry.
50 to 75%

Tell me its inhibition at 1 µM given CC(=O)Nc1ccn(C(=O)N2CCC3(CCCN3Cc3ccc(Cl)cc3OCCCC(=O)O)CC2)n1 as the entry.
> 75%

Tell me its inhibition at 1 µM given CS(=O)(=O)Nc1ccn(C(=O)N2CCC(Oc3ccc(Cl)c(OC4CCCC4)c3)CC2)n1 as the entry.
> 75%

Tell me its inhibition at 1 µM given CS(=O)(=O)Nc1ccn(C(=O)N2CCC3(CCCN3Cc3cc4ccc(C(F)(F)F)cc4s3)CC2)n1 as the entry.
0 to 25%

###

# measured_target: FAAH (Mus musculus (Mouse))
# Sequence (O08914 whole entry): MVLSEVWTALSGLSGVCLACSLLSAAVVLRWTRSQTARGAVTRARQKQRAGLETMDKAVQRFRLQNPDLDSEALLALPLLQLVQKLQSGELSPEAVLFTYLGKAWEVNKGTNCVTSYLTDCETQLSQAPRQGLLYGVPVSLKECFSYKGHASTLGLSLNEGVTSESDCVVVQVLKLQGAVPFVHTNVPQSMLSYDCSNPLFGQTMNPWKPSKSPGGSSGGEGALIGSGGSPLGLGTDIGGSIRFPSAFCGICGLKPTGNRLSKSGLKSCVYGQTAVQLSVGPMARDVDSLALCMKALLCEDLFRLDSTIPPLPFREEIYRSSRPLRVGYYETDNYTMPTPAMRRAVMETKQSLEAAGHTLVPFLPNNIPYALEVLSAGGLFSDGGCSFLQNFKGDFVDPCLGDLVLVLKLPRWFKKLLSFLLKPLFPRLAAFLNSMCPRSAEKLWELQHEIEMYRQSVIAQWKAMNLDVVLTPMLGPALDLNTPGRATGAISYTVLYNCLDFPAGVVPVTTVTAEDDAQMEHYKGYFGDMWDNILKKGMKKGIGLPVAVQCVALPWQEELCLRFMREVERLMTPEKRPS
# assay_summary: In vitro competitive activity-based protein profiling, mouse proteomes (brain membrane fraction or cell lysates)
# Format: biochemical
# stated_conditions: mouse proteome, read-out: FAAH % inh. 1 μM (mouse)
measured_attribute: inhibition at 1 µM

Tell me its inhibition at 1 µM given CS(=O)(=O)Nc1ccn(C(=O)N2CCN(Cc3ccc(C(N)=O)c(C(F)(F)F)c3)CC2)n1 as the entry.
0 to 25%

Tell me its inhibition at 1 µM given CC(=O)Nc1ccn(C(=O)N2CCC3(CCCN3Cc3ccc(C(F)(F)F)cc3NCCCC(=O)O)CC2)n1 as the entry.
0 to 25%

Tell me its inhibition at 1 µM given CS(=O)(=O)Nc1ccn(C(=O)N2CCN(Cc3ccc(C(F)(F)F)c(-c4nnco4)c3)CC2)n1 as the entry.
0 to 25%

Further cases:
Tell me its inhibition at 1 µM given CS(=O)(=O)Nc1ccn(C(=O)N2CC3CN(Cc4cccc(C(F)(F)F)c4)CC3C2)n1 (stereo not drawn) as the entry.
> 75%

Tell me its inhibition at 1 µM given CS(=O)(=O)Nc1ccn(C(=O)N2CCN(Cc3ccc(C(F)(F)F)c(N4CC[C@@H](F)C4)c3)CC2)n1 as the entry.
0 to 25%

Tell me its inhibition at 1 µM given CS(=O)(=O)Nc1ccn(C(=O)N2CCC(Oc3ccc(C(F)(F)F)c(-c4nnco4)c3)CC2)n1 as the entry.
0 to 25%

Tell me its inhibition at 1 µM given CS(=O)(=O)Nc1ccn(C(=O)N2CCC(Oc3ccc(C(F)(F)F)cc3NCC(=O)O)CC2)n1 as the entry.
0 to 25%

Tell me its inhibition at 1 µM given CC(=O)Nc1ccn(C(=O)N2CC3CN(Cc4cc(Cl)cc(N5CCOCC5)c4)CC3C2)n1 (stereo not drawn) as the entry.
> 75%

Tell me its inhibition at 1 µM given C#Cc1ccc(CN2CCN(C(=O)n3ccc(NS(C)(=O)=O)n3)CC2)cc1 as the entry.
0 to 25%

Tell me its inhibition at 1 µM given Cc1c(CN2CCN(C(=O)n3ccc(NS(C)(=O)=O)n3)CC2)sc2ccccc12 as the entry.
0 to 25%

Tell me its inhibition at 1 µM given CS(=O)(=O)Nc1ccn(C(=O)N2CCN(Cc3cc4ccccc4s3)CC2)n1 as the entry.
0 to 25%

Tell me its inhibition at 1 µM given CS(=O)(=O)Nc1ccn(C(=O)N2CCC3(CCN(Cc4ccc(N5CCCC5)c(C(F)(F)F)c4)C3)CC2)n1 as the entry.
50 to 75%
